- TEST SUMMARY: Biodistribution study with lead-212
- Format: in vivo, mouse
- CONDITION INFO: mouse, skin, intravenous, 100 kBq, 1 h p.i.; n = 4; read-out: Skin uptake
- Protocol: Six-week-old male Balb/c nu/nu-specific and opportunistic pathogen-tree (SOPF) mice (Janvier Labs, Le Genest-Saint-Isle, France) were housed in individually ventilated cages, with four mice per cage. […] Biodistribution studies were performed to determine tumor and organ uptake of [^212Pb]Pb-DOTAM-TATE, [^212Pb]Pb-eSOMA-01, and [^212Pb]Pb-eSOMA-02. […] To determine the total injected radioactivity per animal, a calibration curve with lead-212 was established using the gamma counter. […]
ATTRIBUTE MEASURED: tissue uptake at 1 h (%ID/g)
Numeric only. Scale: %ID/g

Note down tissue uptake at 1 h recorded for C[C@@H](O)[C@H](NC(=O)[C@@H]1CSSC[C@H](NC(=O)[C@@H](Cc2ccccc2)NC(=O)CN2CCN(CC(N)=O)CCN(CC(N)=O)CCN(CC(N)=O)CC2)C(=O)N[C@@H](Cc2ccc(O)cc2)C(=O)N[C@H](Cc2c[nH]c3ccccc23)C(=O)N[C@@H](CCCCN)C(=O)N[C@@H]([C@@H](C)O)C(=O)N1)C(=O)O [[^212Pb]Pb-DOTAM-TATE, metal not drawn, reference compound] 1

Look up tissue uptake at 1 h of C[C@@H](O)[C@H](NC(=O)[C@@H]1CSSC[C@H](NC(=O)[C@@H](Cc2ccccc2)NC(=O)[C@H]2CC[C@H](CNC(=O)CN3CCN(CC(N)=O)CCN(CC(N)=O)CCN(CC(N)=O)CC3)CC2)C(=O)N[C@@H](Cc2ccc(O)cc2)C(=O)N[C@H](Cc2c[nH]c3ccccc23)C(=O)N[C@@H](CCCCN)C(=O)N[C@@H]([C@@H](C)O)C(=O)N1)C(=O)O [[^212Pb]Pb-eSOMA-01, metal not drawn] and report it. 2.23
